system: MS2 coat protein; experiment: apparent KD of MS2 coat protein, switch ON state; designed switch direction (-1 OFF switch, 1 ON switch): -1; higher = weaker reporter binding; conditions: FMN input: 0 or 200 uM; Eterna round: R93 (includes R88 designs)
The reader will find reported apparent KD of MS2 coat protein values listed item by item below.
Report only the number, with the unit nM understood.

Example results:
AAGAAGCUAGGAUAUACAUGAGGAUCACCCAUGUAAAAGAAAGAAGGGAAAGAGAAAAGUAGAAGGAGCAAGAA [Tefnakht]; 26.6
GGAAAACAUGAGGAUCACCCAUGUAAGGAUAUGCUAGGGAAGGAAAAAAACCCACCAGGCAGAAGGUACUAAAG [Janelle Amethyst 18 Mod 5 - Jieux - Exclusion 1]; 22.9
AAAUGCUGAGGAUAUACAUGAGGAUCACCCAUGUAAAAUAAAUAAUAGGUGUAAACGUGUAGAAGGCAGCAUAA [Exclusion 3.14a (FMN+ favored )]; 62.6
AACGAACAUGAGGAUCACCCAUGUCAGGAUAUGCGAAGAACGAUCGAACAAACGAUAAGCAGAAGGGACAGAGA [Amethyst 98]; 25.1
AAGACUAGAGGAUAUACAUGAGGAUCACCCAUGUAACUGUCAGGAAACUGACGGAGAAGUAGAAGGCUAGUCAA [Mat - Exclusion 3 - JL mod - D85]; 16.1

For the next question, use this sequence.
Give the reported apparent KD of MS2 coat protein for UAAAAACAUGAGGAUCACCCAUGUGAGGAUAUACGAAAGUAGAAGGCACUAAAAUAAAAUAGAAGGAUAAAAUA [Meechl Ex1 R2 m1] (system: MS2 coat protein).
23.2
